# Species: Rattus norvegicus
# Experimental protocol: DrugMatrix - Regimen: Daily Repeat
# Type: toxicity, organism-based, Sprague-Dawley
# Set-up: regimen Daily Repeat, gender Male, age 6-8 weeks
# Settings: in vivo, po, 0 mg/kg, 72 h, tissue Blood, route oral GAVAGE, dose level Control, time 3 day, […]
Met if NEUTROPHIL is below 8%. Not met if not; exact matches included in Not met.

Check if NEUTROPHIL falls below 8% for CC(=O)Oc1ccccc1C(=O)O .
Not met

Would you kindly verify if NEUTROPHIL of CS(=O)(=O)Nc1ccc([N+](=O)[O-])cc1Oc1ccccc1 [NIMESULIDE] is strictly less than 8%?
Not met

Is NEUTROPHIL of O=c1c(-c2ccc(O)cc2)coc2cc(O)cc(O)c12 strictly below 8%?
Met

Does the reported NEUTROPHIL of CCCCC(=O)N(Cc1ccc(-c2ccccc2-c2nnn[nH]2)cc1)[C@H](C(=O)O)C(C)C stay below 8%?
Met

Dear colleague, could you confirm whether NEUTROPHIL of CC(C)c1c(C(=O)Nc2ccccc2)c(-c2ccccc2)c(-c2ccc(F)cc2)n1CC[C@@H](O)C[C@@H](O)CC(=O)O falls below 8%? Thanks.
Met

Does this molecule meet the criterion NEUTROPHIL < 8%? Cc1ccc(C)c(OCCCC(C)(C)C(=O)O)c1
Not met

* * *

# Species on record: Rattus norvegicus
# Experimental protocol: DrugMatrix - Regimen: Daily Repeat
# Assay type: toxicity, organism-based, Sprague-Dawley
# Design: regimen Daily Repeat, gender Male, age 6-8 weeks
# Settings: in vivo, iv, 0 mg/kg, 120 h, tissue Plasma, dose level Control, time 5 day, vehicle 100 % SALINE
# key: entry, value: ALKALINE PHOSPHATASE
Numbers only; they are read as u/L.

Study these solved cases before continuing.
>>> df
                                   compound  assay_result
0  C[N+](C)(C)CCOC(=O)CCC(=O)OCC[N+](C)(C)C.[Cl-].[Cl-] [SUCCINYLCHOLINE CHLORIDE]        331.33
1  O=c1[nH]c(=O)n([C@H]2C[C@H](O)[C@@H](CO)O2)cc1F [FLOXURIDINE]        364.67

In one line, give reported ALKALINE PHOSPHATASE of the entry COc1cccc2c1C(=O)c1c(O)c3c(c(O)c1C2=O)C[C@@](O)(C(C)=O)C[C@@H]3O[C@H]1C[C@H](N)[C@H](O)[C@H](C)O1 [DAUNORUBICIN] .
392.67

Look up and report measured ALKALINE PHOSPHATASE for this entry: N=C(N)c1ccc(OCCCCCOc2ccc(C(=N)N)cc2)cc1 [PENTAMIDINE]
331.33

Tell me its ALKALINE PHOSPHATASE given O=C(O)P(=O)(O)O [FOSCARNET] as the entry.
352.67

* * *

# Species: Rattus norvegicus
# Experimental protocol: DrugMatrix - Regimen: Daily Repeat
# Format: toxicity, organism-based, Sprague-Dawley
# Set-up: regimen Daily Repeat, gender Male, age 6-8 weeks
# Settings: in vivo, po, 0 mg/kg, 120 h, tissue Plasma, route oral GAVAGE, dose level Control, time 5 day, vehicle 100 % WATER
Below, each entry is listed with its recorded CREATININE.
# answer = value followed by unit

// below: answered compounds
>>> print(df.to_string())
                                   compound  assay_result
0  C#Cc1cccc(Nc2ncnc3cc(OCCOC)c(OCCOC)cc23)c1    0.72 mg/dL
1  CN(C)C(=O)Oc1cccc([N+](C)(C)C)c1.[Br-] [NEOSTIGMINE BROMIDE]    0.17 mg/dL
2              NC(=O)c1cccnc1 [NIACINAMIDE]    0.26 mg/dL
3  CNC1=Nc2ccc(Cl)cc2C(c2ccccc2)=[N+]([O-])C1 [CHLORDIAZEPOXIDE]    0.16 mg/dL

Quick one: give measured CREATININE for CCN(CC)CCNC(=O)c1ccc(N)cc1 [PROCAINAMIDE]
0.6 mg/dL

* * *

# Species on record: Rattus norvegicus
# Experimental protocol: DrugMatrix - Regimen: Daily Repeat
# Format: toxicity, organism-based, Sprague-Dawley
# Parameters: regimen Daily Repeat, gender Male, age 6-8 weeks
# Settings: in vivo, po, 0 mg/kg, 72 h, tissue Plasma, route oral GAVAGE, dose level Control, time 3 day, vehicle .5 % CMC
Observable: CHLORIDE (MEQ/L)
// note: answer is a bare numeric in MEQ/L

Molecule	Observable	Unit text	Assay result
C#C[C@]1(O)CC[C@H]2[C@@H]3CCC4=CC(=O)CC[C@]4(C)[C@H]3CC[C@@]21C [ETHISTERONE]	CHLORIDE	MEQ/L	96.67

Read the entry C[C@@](Cc1ccc(O)c(O)c1)(NN)C(=O)O.O [CARBIDOPA] and write its reported CHLORIDE.
99.17

Return CHLORIDE (reported value) for this molecule: CCn1cc(C(=O)O)c(=O)c2cc(F)c(N3CCNC(C)C3)c(F)c21 (configuration not stated) [LOMEFLOXACIN]
107.33

Quickly give me recorded CHLORIDE for C[C@@H]1O[C@@H](O[C@H]2C[C@@H](O)[C@]3(CO)[C@H]4[C@H](O)C[C@]5(C)[C@@H](C6=CC(=O)OC6)CC[C@]5(O)[C@@H]4CC[C@]3(O)C2)[C@H](O)[C@H](O)[C@H]1O [OUABAIN]
101.83

Give a short answer stating reported CHLORIDE for C[C@]12CC[C@@H]3c4ccc(O)cc4CC[C@H]3[C@@H]1C[C@@H](O)[C@@H]2O [ESTRIOL] .
100.83

Answer with reported CHLORIDE of CCC1=C(C)CN(C(=O)NCCc2ccc(S(=O)(=O)NC(=O)N[C@H]3CC[C@H](C)CC3)cc2)C1=O [GLIMEPIRIDE]
101

Find the measured CHLORIDE of NC(=O)N1c2ccccc2CC(=O)c2ccccc21 [OXCARBAZEPINE] and report it.
99.17

* * *

# Species: Rattus norvegicus
# Experimental protocol: DrugMatrix - Regimen: Daily Repeat
# Assay type: toxicity, organism-based, Sprague-Dawley
# Set-up: regimen Daily Repeat, gender Male, age 6-8 weeks
# Settings: in vivo, po, 0 mg/kg, 120 h, tissue Blood, route oral GAVAGE, dose level Control, time 5 day, vehicle 100 % WATER
Catalogue of HEMOGLOBIN values
Express your answer in G/DL, writing the number without its unit.

In [3]: df
Out[3]:
                            molecule  assay_result
0  CCN(CC)CCOC(=O)C1(C2CCCCC2)CCCCC1         14.38

Dear colleague, please send me the reported HEMOGLOBIN for C#Cc1cccc(Nc2ncnc3cc(OCCOC)c(OCCOC)cc23)c1 when you can.
14.23

Supply HEMOGLOBIN value. Item: NC(=O)c1cccnc1 [NIACINAMIDE]
13.72

* * *

# Species: Rattus norvegicus
# Experimental protocol: DrugMatrix - Regimen: Daily Repeat
# Type: toxicity, organism-based, Sprague-Dawley
# Design: regimen Daily Repeat, gender Male, age 6-8 weeks
# Settings: in vivo, po, 0 mg/kg, 120 h, tissue Blood, route oral GAVAGE, dose level Control, time 5 day, vehicle .5 % CMC
Each entry below carries its reported MEAN CORPUSCULAR HEMOGLOBIN CONCENTRATION.
State just the number; it will be interpreted in G/DL.

The cases that follow already have their MEAN CORPUSCULAR HEMOGLOBIN CONCENTRATION on record.
Molecule	Assay result
COc1ccc2c(c1OC)C(=O)O[C@@H]2[C@H]1c2c(cc3c(c2OC)OCO3)CCN1C [NOSCAPINE]	31.02
CCOc1nc2cccc(C(=O)O)c2n1Cc1ccc(-c2ccccc2-c2nnn[nH]2)cc1	39.63
CCCNC(=O)NS(=O)(=O)c1ccc(Cl)cc1 [CHLORPROPAMIDE]	40.32
COc1cc(OC)c(C(=O)CCCN2CCCC2)c(OC)c1 [BUFLOMEDIL]	39.55
C#C[C@]1(O)CC[C@H]2[C@@H]3CCC4=CC(=O)CC[C@]4(C)[C@H]3CC[C@@]21C [ETHISTERONE]	31.02
C[C@]12CC[C@@H]3c4ccc(O)cc4CC[C@H]3[C@@H]1C[C@@H](O)[C@@H]2O [ESTRIOL]	38.9

Indicate the recorded MEAN CORPUSCULAR HEMOGLOBIN CONCENTRATION value for this molecule: CN(C)CCN(Cc1cccs1)c1ccccn1
31.02

Report measured MEAN CORPUSCULAR HEMOGLOBIN CONCENTRATION; entry is CN1CCN(C2=Nc3cc(Cl)ccc3Nc3ccccc32)CC1 [CLOZAPINE]
40.32

Kindly indicate its recorded MEAN CORPUSCULAR HEMOGLOBIN CONCENTRATION. Item: CCC1=C(C)CN(C(=O)NCCc2ccc(S(=O)(=O)NC(=O)N[C@H]3CC[C@H](C)CC3)cc2)C1=O [GLIMEPIRIDE]
40.35

Output MEAN CORPUSCULAR HEMOGLOBIN CONCENTRATION of C[C@H]1[C@H](NC(=O)/C(=N\OC(C)(C)C(=O)O)c2csc(N)n2)C(=O)N1S(=O)(=O)O [AZTREONAM]
37.47

Identify the reported MEAN CORPUSCULAR HEMOGLOBIN CONCENTRATION for the following entry. CN(C)C(=O)C(CCN1CCC(O)(c2ccc(Cl)cc2)CC1)(c1ccccc1)c1ccccc1 [LOPERAMIDE]
40.35

Tell us which MEAN CORPUSCULAR HEMOGLOBIN CONCENTRATION value is on record for CN1C(=O)CN=C(c2ccccc2)c2cc([N+](=O)[O-])ccc21 [NIMETAZEPAM]
31.52

Identify measured MEAN CORPUSCULAR HEMOGLOBIN CONCENTRATION associated with NC(=O)N1c2ccccc2CC(=O)c2ccccc21 [OXCARBAZEPINE]
40.43
